Test system: IL-17A induced secretion of IL-6 in primary human RASF cells
Assay: Inhibition of IL17A induced secretion of IL6 in human rheumatoid arthritis synovial fibroblast (RASF) cells
Type: cell-based
Quick list: IC50 per entry.

These solved cases illustrate the format of a correct answer.
Molecule	IC50
O=C1CC2(CCCC2)CC(=O)NC(Cc2ccc(NC(=O)C(Cc3ccccc3Cl)NC(=O)c3cccnc3)cc2)C(=O)NCCOCCOCCN1 (stereo not drawn)	1000 to 10000 nM
CC1NC(=O)C(Cc2ccc(NC(=O)C(Cc3ccccc3Cl)NC(=O)C(F)(F)c3ccccc3)cc2)NC(=O)CC2(CCCC2)CC(=O)N(C)CCCCCN(C)C1=O (stereo not drawn)	100 to 1000 nM

Read the next record carefully.
Query: What measured IC50 goes with CC1NC(=O)C(Cc2ccc(NC(=O)C(Cc3ccccc3Cl)NC(=O)Cc3ccc(F)cc3)cc2)NC(=O)C2(CCCC2)CCC(=O)NCCCCCNC1=O (stereo not drawn) ?
Reply: 1000 to 10000 nM

----------
Target: biotinylated human IL-17 (binding to IL17R/Fc) (Homo sapiens, UniProt Q16552)
Construct: 177-IR (IL17R/Fc)
Sequence (Q16552 20-155 limits assumed): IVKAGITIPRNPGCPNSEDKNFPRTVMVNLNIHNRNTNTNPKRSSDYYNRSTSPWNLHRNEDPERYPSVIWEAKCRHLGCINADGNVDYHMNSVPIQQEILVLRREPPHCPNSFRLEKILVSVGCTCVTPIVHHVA
Assay: IL-17 competition ELISA II (captured IL17R/Fc, biotinylated IL-17)
Protocol: In this version, a high binding 96-well plate (Costar #9018) was coated with 20 nM of goat anti-human IgG (KPL 01-10-02) in PBS, 100 μL/well, for 30 min at 37° C. followed by 5 min at 4° C. […] Data was processed using BioAssay Enterprise v10.1.4 (CambridgeSoft) software. […] IC50 was calculated using positive ‘no competitor’ control data as an upper limit and blank control as a lower limit in each assay.
pIC50: −log10 of the molar value.
Measure name: pIC50

Compound	pIC50
O=C1CC2(CCCC2)NC(=O)CCCCNC(=O)[C@@H](Cc2ccc(NC(=O)[C@H](Cc3ccccc3Cl)NC(=O)C(F)(F)c3ccccc3)cc2)N1	6.00 to 7.00
Cc1ccc(C[C@H](NC(=O)C2(c3ccc(F)cc3)CC2)C(=O)Nc2ccc(C[C@H]3NC(=O)CC4(CCCC4)CC(=O)NCCOCCOCCNC3=O)cc2)c(C)c1	6.00 to 7.00
C[C@H]1NC(=O)[C@@H](Cc2ccc(NC(=O)[C@H](Cc3ccccc3Cl)NC(=O)Cc3ccc(F)cc3)cc2)NC(=O)CC2(CCOCC2)NC(=O)CCCCCCNC1=O	6.00 to 7.00
O=C1CC2(CCCC2)CC(=O)N[C@H](Cc2ccc(NC(=O)[C@H](Cc3ccccc3Cl)NC(=O)C(F)(F)c3ccccc3)cc2)C(=O)NCCCCCCCCN1	> 7.00
CN1C(=O)CC2(CCCC2)CC(=O)NCCCCCCCCNC(=O)[C@H]1Cc1ccc(NC(=O)[C@H](Cc2ccccc2Cl)NC(=O)C2(c3ccc(F)cc3)CC2)cc1	5.00 to 6.00
C[C@H]1NC(=O)[C@@H](Cc2ccc(NC(=O)[C@H](Cc3ccccc3Cl)NC(=O)Cc3ccc(F)cc3)cc2)N(C)C(=O)CC2(CCCC2)CC(=O)N(C)CCCCCN(C)C1=O	> 7.00
COC(=O)N[C@@H](Cc1ccccc1Cl)C(=O)Nc1ccc(C[C@H]2NC(=O)CC3(CCCC3)CC(=O)NCCOCCOCCNC2=O)cc1	> 7.00
CN1CCOCCOCCNC(=O)[C@@H](Cc2ccc(NC(=O)[C@@H](NC(=O)Cc3ccc(N(C)C)cc3)C3CCCCC3)cc2)NC(=O)CC2(CCCC2)CC1=O	> 7.00
C[C@H]1NC(=O)[C@@H](CCCCNC(=O)[C@H](Cc2ccccc2Cl)NC(=O)C(F)(F)c2ccccc2)NC(=O)CC2(CCCC2)CC(=O)NCCCCCNC1=O	< 5.00
O=C1CC2(CCCC2)CC(=O)N[C@H](Cc2ccc(NC(=O)[C@H](Cc3ccccc3Cl)NC(=O)Cc3ccccc3)cc2)C(=O)NC/C=C/CCCCCN1	6.00 to 7.00

Query: Would you mind telling me what pIC50 value was observed for C[C@H]1NC(=O)[C@@H](Cc2ccc(NC(=O)[C@H](Cc3ccccc3Cl)NC(=O)Cc3ccc(F)cc3)cc2)NC(=O)CC2(CCC2)CC(=O)NCCCCCNC1=O ?
Reply: > 7.00

Query: Value lookup for pIC50; key = CN1CCCCCN(C)C(=O)[C@@H](CCC(N)=O)NC(=O)[C@@H](Cc2ccc(NC(=O)[C@H](Cc3ccccc3Cl)NC(=O)C(F)(F)c3ccccc3)cc2)NC(=O)CC2(CCCC2)CC1=O
Reply: > 7.00

Query: Entry C[C@H]1NC(=O)[C@@H](Cc2ccc(NC(=O)[C@@H](NC(=O)c3cccnc3)C3CCCCC3)cc2)NC(=O)CC2(CCCC2)CC(=O)NCCCCCNC1=O has what pIC50?
Reply: > 7.00

Query: Could you tell me which pIC50 is on file for CN(C)c1ccc(CC(=O)N[C@@H](Cc2ccccc2Cl)C(=O)Nc2ccc(C[C@H]3NC(=O)CC4(CCCC4)CC(=O)NCCOCCOCCNC3=O)cc2)cc1 ?
Reply: > 7.00

Query: Give the measured pIC50 of CC(=O)N[C@@H](Cc1ccccc1Cl)C(=O)Nc1ccc(C[C@H]2NC(=O)CC3(CCCC3)CC(=O)NCCCCCNC(=O)[C@@H](C)NC2=O)cc1 .
Reply: > 7.00

Query: Field request: pIC50 | item: C[C@H]1NC(=O)[C@@H](Cc2ccc(NC(=O)[C@H](Cc3ccccc3Cl)NC(=O)C(=O)c3ccccc3)cc2)NC(=O)CC2(CCCC2)CC(=O)NCCCCCNC1=O
Reply: > 7.00

Query: pIC50 for C[C@H]1NC(=O)[C@@H](Cc2ccc(NC(=O)[C@H](Cc3ccccc3Cl)NC(=O)Cc3ccc(CO)cc3)cc2)NC(=O)CC2(CCCC2)CC(=O)NCc2cccc(c2)CNC1=O ?
Reply: > 7.00

Query: Which pIC50 value is on record for O=C1CC2(CCCC2)CC(=O)N[C@H](Cc2ccc(NC(=O)[C@H](Cc3ccccc3Cl)NC(=O)Cc3ccccc3)cc2)C(=O)NCCCCCCCN1 ?
Reply: > 7.00

Query: What does the record list as pIC50 for CC(O)[C@H]1NC(=O)[C@@H](Cc2ccc(NC(=O)[C@H](Cc3ccccc3Cl)NC(=O)C(F)(F)c3ccccc3)cc2)NC(=O)CC2(CCCC2)CC(=O)N(C)CCOCCN(C)C1=O (stereo partly drawn) ?
Reply: > 7.00

Query: Please report the recorded pIC50 for CC(C)(C)[C@H](NC(=O)Cc1ccccc1)C(=O)Nc1ccc(C[C@H]2NC(=O)CC3(CCCC3)CC(=O)NCCCCCNC(=O)CNC2=O)cc1 .
Reply: 6.00 to 7.00

Query: Quick one: pIC50 for O=C1CC2(CCCC2)CC(=O)N[C@H](Cc2ccc(NC(=O)[C@H](Cc3ccccc3Cl)NC(=O)[C@@H](O)c3ccccc3)cc2)C(=O)NCCCCCN1 ?
Reply: 6.00 to 7.00

----------
Biological target: recombinant human IL17a (binding to its receptor IL17R) (Homo sapiens, UniProt Q16552)
Construct: 177-IR (IL17R/Fc)
Assay: IL-17 competition ELISA I (IL17a coated, IL17R/Fc binding)
pIC50: −log10 of the molar value.
Measure name: pIC50

These recorded examples may help you get a feel for the data.
>>> print(df.to_string())
                            compound_string                                    system  recorded_value
0  O=C1CNC(=O)[C@@H](Cc2ccc(NC(=O)[C@H](Cc3ccc(Cl)cc3Cl)NC(=O)Cc3ccc(O)cc3)cc2)NC(=O)CC2(CCCC2)CC(=O)NCCCCCN1  recombinant human IL17a (binding to its receptor IL17R) (Homo sapiens, UniProt Q16552)          > 7.00
1  O=C1CNC(=O)[C@@H](Cc2ccc(NC(=O)[C@H](Cc3ccccc3Cl)NS(=O)(=O)Cc3ccccc3)cc2)NC(=O)CC2(CCCC2)CC(=O)NCCCCCN1  recombinant human IL17a (binding to its receptor IL17R) (Homo sapiens, UniProt Q16552)    6.00 to 7.00
2  O=C1CNC(=O)[C@@H](Cc2ccc(NC(=O)[C@H](Cc3ccccc3Cl)NC(=O)Cc3ccccc3)cc2)NC(=O)CC2(CCCC2)CC(=O)NCCOCCN1  recombinant human IL17a (binding to its receptor IL17R) (Homo sapiens, UniProt Q16552)          > 7.00
3  CC(=O)N[C@@H](Cc1cccs1)C(=O)Nc1ccc(C[C@H]2NC(=O)CC(C)(C)CC(=O)NCCCCCNC(=O)CNC2=O)cc1  recombinant human IL17a (binding to its receptor IL17R) (Homo sapiens, UniProt Q16552)          < 5.00
4  CN1CCCCCNC(=O)CC2(CCCC2)CC(=O)N[C@H](Cc2ccc(NC(=O)[C@@H](NC(=O)Cc3ccccc3)C3CCCCC3)cc2)C(=O)NCC1=O  recombinant human IL17a (binding to its receptor IL17R) (Homo sapiens, UniProt Q16552)    6.00 to 7.00
5  O=C1CNC(=O)[C@@H](Cc2ccc(NC(=O)[C@H](CC3CCCCC3)NC(=O)Cc3ccc(O)cc3)cc2)NC(=O)CC2(CCCC2)CC(=O)NCCCCCN1  recombinant human IL17a (binding to its receptor IL17R) (Homo sapiens, UniProt Q16552)          > 7.00

Query: Report pIC50 for O=C1CNC(=O)[C@@H](Cc2ccc(NC(=O)[C@H](Cc3ccc(F)cc3Cl)NC(=O)c3ccc(F)cc3)cc2)NC(=O)CC2(CCCC2)CC(=O)NCCOCCN1 please.
Reply: 6.00 to 7.00

Query: Form field: reported pIC50 of O=C1CC2(CCCC2)CC(=O)N[C@H](Cc2ccc(NC(=O)[C@H](Cc3ccccc3Cl)NC(=O)Cc3ccccc3)cc2)C(=O)NCCCCCCCN1
Reply: 6.00 to 7.00

Query: # query: pIC50 of entry CC(C)(C)C(=O)N[C@@H](Cc1ccccc1Cl)C(=O)Nc1ccc(C[C@H]2NC(=O)CC3(CCCC3)CC(=O)NCCCCCNC(=O)CNC2=O)cc1
Reply: > 7.00

Query: Item under review: O=C1CC2(CCCC2)CC(=O)N[C@H](Cc2ccc(NC(=O)[C@@H](NC(=O)Cc3ccccc3)C3CCCCC3)cc2)C(=O)N[C@H](Cc2ccccc2)C(=O)NCCCCCN1 . Reported pIC50?
Reply: 6.00 to 7.00

Query: May I ask what pIC50 has been recorded for COC(=O)[C@@H]1CCCCNC(=O)CNC(=O)[C@@H](Cc2ccc(NC(=O)[C@H](Cc3ccccc3Cl)NC(=O)Cc3ccccc3)cc2)NC(=O)CC2(CCCC2)CC(=O)N1 ?
Reply: > 7.00

Measured values drawn from patent US9284283B2 for this set.
